experimental.system: Protoporphyrinogen IX oxidase (Zea mays)
Sequence (Q9FYV8 whole entry): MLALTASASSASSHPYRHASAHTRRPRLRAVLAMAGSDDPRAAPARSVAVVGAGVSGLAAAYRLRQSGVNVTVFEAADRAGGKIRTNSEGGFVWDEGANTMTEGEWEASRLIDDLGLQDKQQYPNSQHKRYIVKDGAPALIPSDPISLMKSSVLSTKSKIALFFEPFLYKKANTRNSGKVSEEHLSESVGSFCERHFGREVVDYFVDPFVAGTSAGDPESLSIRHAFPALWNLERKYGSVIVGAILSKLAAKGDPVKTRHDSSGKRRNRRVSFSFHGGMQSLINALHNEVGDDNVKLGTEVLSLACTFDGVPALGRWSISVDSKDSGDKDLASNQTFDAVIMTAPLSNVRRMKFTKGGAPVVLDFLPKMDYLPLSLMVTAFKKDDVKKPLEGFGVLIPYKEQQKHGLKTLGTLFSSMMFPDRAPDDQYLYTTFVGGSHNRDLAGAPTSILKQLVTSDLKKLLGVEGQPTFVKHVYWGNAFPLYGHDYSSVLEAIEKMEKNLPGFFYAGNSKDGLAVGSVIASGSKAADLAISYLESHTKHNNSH
assay.summary: Inhibition of Zea mays cv. Anjou (maize) plastid Protoporphyrinogen IX oxidase assessed as inhibition of protoporphyrin IX by fluorescence spectrophotometry
study.conditions: read-out: pI50 (converted)
Classification field. Basis: IC50. Definitions: low (below 0.05 µM), moderate (0.05 µM to below 0.3 µM), high (0.3 µM or more)

* O=c1n(-c2ccc(Br)cc2)c(=O)n2n1CCCCC2 | high
* O=c1s/c(=N\c2ccc(Br)cc2)n2n1CCC2 | high
* S=c1n(-c2ccc(Br)cc2)c(=S)n2n1CCCCC2 | moderate
* O=c1n(-c2ccc(Br)cc2)c(=O)n2n1CCCC2 | high
* S=c1n(-c2ccc(Br)cc2)c(=S)n2n1CCC2 | low
* O=c1n(-c2ccc(Br)cc2)c(=S)n2n1CCC2 | moderate
* O=c1n(-c2ccc(Br)cc2)c(=O)n2n1CCC2 | high
* O=c1n(-c2ccc(Br)cc2)c(=S)n2n1CCCCC2 | moderate
* S=c1s/c(=N\c2ccc(Br)cc2)n2n1CCC2 | high
* O=c1n(-c2ccc(Br)cc2)c(=S)n2n1CCCC2 | low

Numbers sourced from ChEMBL document CHEMBL3044890.
